test system: extracellular T. gondii tachyzoites; assay: Extracellular T. gondii tachyzoites treated 2 hours, washed, then infection of HFF quantified by luciferase; assay type: cell-based, Toxoplasma gondii; conditions: Toxoplasma gondii; RH strain tachyzoites treated 2 hours, washed, growth in HFF after 24 hours; read-out: EC50 against extracellular T. gondii tachyzoites
reported-endpoint: pEC50
# pEC50 = -log10(concentration in molar units)

Field request: pEC50 | item: CC1CCC=CC=CCCC(O)CC(=O)CC2CCC(C)C3(O2)O[B-]24OC(C(=O)O1)C1(OC(CCC1C)CC(=O)CC(O)CCC=CC=CCCC(C)OC(=O)C3O2)O4 (stereo not shown) [trtE, tartrolon E] 8.51

---

system: Babesia bovis; experiment: B. bovis-infected erythrocyte proliferation, SYBR green incorporation; format: cell-based; settings: in Bos taurus, infected erythrocytes, 72 hours, read-out: EC50 against B. bovis
reported-endpoint: pEC50
# pEC50 = -log10(concentration in molar units)

Field request: pEC50 | item: CC1CCC=CC=CCCC(O)CC(=O)CC2CCC(C)C3(O2)O[B-]24OC(C(=O)O1)C1(OC(CCC1C)CC(=O)CC(O)CCC=CC=CCCC(C)OC(=O)C3O2)O4 (stereo not shown) [trtE, tartrolon E] 7.80

---

system: Sarcocystis neurona; experiment: Sarcocystis neurona GFP/Luc merozoite growth in bovine turbinate cells, luciferase expression; assay type: cell-based; conditions: 24 hours treatment, read-out: EC50 against S. neurona
reported-endpoint: pEC50
# pEC50 = -log10(concentration in molar units)

Field request: pEC50 | item: CC1CCC=CC=CCCC(O)CC(=O)CC2CCC(C)C3(O2)O[B-]24OC(C(=O)O1)C1(OC(CCC1C)CC(=O)CC(O)CCC=CC=CCCC(C)OC(=O)C3O2)O4 (stereo not shown) [trtE, tartrolon E] 7.89

---

system: Plasmodium falciparum; assay: P. falciparum-infected erythrocyte proliferation, SYBR green incorporation; type: cell-based; conditions: Plasmodium falciparum, Erythrocyte; infected erythrocytes, 72 hours; read-out: EC50 against P. falciparum
reported-endpoint: EC50 (nM)
I only need the number, in nM, no unit after it.

Field request: EC50 | item: CC1CCC=CC=CCCC(O)CC(=O)CC2CCC(C)C3(O2)O[B-]24OC(C(=O)O1)C1(OC(CCC1C)CC(=O)CC(O)CCC=CC=CCCC(C)OC(=O)C3O2)O4 (stereo not shown) 0.105

---

test system: Theileria equi; experiment: Theileria equi 72 hr in vitro parasite growth inhibition assay; format: cell-based; details: Table 1, rounded, read-out: EC50 against T. equi (Table 1)
reported-endpoint: EC50
Express your answer as a number followed by its unit.

Field request: EC50 | item: CC1CCC=CC=CCCC(O)CC(=O)CC2CCC(C)C3(O2)O[B-]24OC(C(=O)O1)C1(OC(CCC1C)CC(=O)CC(O)CCC=CC=CCCC(C)OC(=O)C3O2)O4 (stereo not shown) [trtE, tartrolon E] 0.4 nM
